Test system: angiotensin II receptor (rat liver membranes) (Rattus norvegicus)
Sequence (P25095 whole entry): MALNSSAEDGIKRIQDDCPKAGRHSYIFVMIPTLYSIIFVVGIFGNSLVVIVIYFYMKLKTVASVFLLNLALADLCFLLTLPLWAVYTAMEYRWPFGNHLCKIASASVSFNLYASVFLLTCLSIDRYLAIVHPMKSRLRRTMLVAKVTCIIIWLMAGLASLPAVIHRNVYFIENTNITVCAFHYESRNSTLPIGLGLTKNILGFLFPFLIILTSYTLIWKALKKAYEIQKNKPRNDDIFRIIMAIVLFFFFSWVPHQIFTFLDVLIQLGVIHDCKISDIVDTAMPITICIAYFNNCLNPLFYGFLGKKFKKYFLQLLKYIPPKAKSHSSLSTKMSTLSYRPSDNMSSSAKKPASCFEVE
Outcome measure: pIC50
Scale note: pIC50 = -log10(concentration in M).

// query Need pIC50, item CCCCc1ncc(C=C2C(=O)N(CC(=O)OCC)c3ccccc32)n1Cc1ccc(-c2nnn[nH]2)cc1 [Example 6A]
// result 7.92

// query # repeat for CCCCc1ncc(C=C2C(=O)N(Cc3nn[nH]n3)c3ccccc32)n1Cc1ccc(C(=O)OC)cc1 [Example 5]
// result 7.03

// query # repeat for CCCc1ncc(/C=C2\C(=O)N(C(C)C)c3ccccc32)n1Cc1ccc(C(=O)OC)cc1 [Example 2F]
// result 7.17

// query # repeat for CCCCc1ncc(C=C2C(=O)N(CC(=O)O)c3ccccc32)n1Cc1ccc(-c2nnn[nH]2)cc1 [Example 7]
// result 8.24

// query # repeat for CCCCc1ncc(C=C2C(=O)Nc3c(OC)cccc32)n1Cc1ccc(C(=O)O)cc1 [Example 3B]
// result 6.92

// query # repeat for CCCCc1ncc(/C=C2/C(=O)N(Cc3ccc(Cl)cc3)c3ccccc32)n1Cc1ccc(C(=O)O)cc1 [Example 4F]
// result 6.59

// query # repeat for CCCc1ncc(C=C2C(=O)N(CCC)c3ccccc32)n1Cc1ccc(C(=O)OC)cc1 [Example 2G]
// result 6.13

// query # repeat for CCCc1nc(-n2cccc2)c(/C=C2/C(=O)N(CC(=O)OC)c3ccccc32)n1Cc1ccc(C(=O)OC)cc1 [Example 4B]
// result 7.02

// query # repeat for CCCCc1ncc(C=C2C(=O)N(CCCC)c3ccccc32)n1Cc1ccc(C(=O)OC)cc1 [Example 4C]
// result 6.45

// query # repeat for CCCCc1nc(Cl)c(/C=C2/C(=O)Nc3ccccc32)n1Cc1ccc(C(=O)O)cc1 [Example 3A]
// result 6.85

// query # repeat for CCCCc1ncc(C=C2C(=O)N(O)c3ccccc32)n1Cc1ccc(C(=O)O)cc1 [Example 3F]
// result 6.91

// query # repeat for CCCCN1C(=O)/C(=C/c2c(-n3cccc3)nc(CCC)n2Cc2ccc(C(=O)OC)cc2)c2ccccc21 [Example 4]
// result 6.23

// query # repeat for CCCc1ncc(C=C2C(=O)N(C)c3ccccc32)n1Cc1ccc(C(=O)OC)cc1 [Example 1D]
// result 7.12

// query # repeat for CCCc1ncc(C=C2C(=O)N(CCC)c3ccccc32)n1Cc1ccc(C(=O)O)cc1 [Example 3I]
// result 6.85

// query # repeat for CCCCc1ncc(CC2C(=O)Nc3ccccc32)n1Cc1ccc(C(=O)OC)cc1 (racemic) [Example 10]
// result 7.28

// query # repeat for CCCCc1ncc(C=C2C(=O)N(OCC(=O)OC)c3ccccc32)n1Cc1ccc(C(=O)OC)cc1 [Example 4G]
// result 7.19

// query # repeat for CCCCc1ncc(/C=C2/C(=O)N(CCC(=O)O)c3ccccc32)n1Cc1ccc(C(=O)O)cc1 [Example 3G]
// result 7.70

// query # repeat for CCCc1ncc(/C=C2\C(=O)N(C(CCC)C(=O)OCC)c3cccc(C)c32)n1Cc1ccc(C(=O)OC)cc1 (racemic) [Example 4I]
// result 6.52
